Protocol: Pharmacokinetic assay in mice
Type: in vivo, Balb/c mice
Condition Info: plasma, 2 mg/kg; mouse, IV 2mpk
Description: Eighteen male Balb/c mice aged 6 to 8 weeks were randomly divided into 2 groups (IV group and PO group). […] Pharmacokinetic parameters of the drug were calculated based on the drug concentration-time data, including the peak concentration Cmax, peak time Tmax, clearance rate CL, steady state apparent volume of distribution Vss, area under drug-time curve AUC, elimination half-life t1/2, bioavailability, and the like. […]

{"Compound": "Cn1ncc2c(N)nc3cc(F)c(C(=O)N4CCOC[C@@H]4c4ccc5c(c4)OC(F)(F)O5)cc3c21 [Example I-7]", "AUC(0-inf) / µM·h": 4.89}

---

Study Target: CYP450 2C9 (Homo sapiens, UniProt P11712)
Construct: from tissue; host or cells: human liver microsomes
Sequence (P11712 whole entry): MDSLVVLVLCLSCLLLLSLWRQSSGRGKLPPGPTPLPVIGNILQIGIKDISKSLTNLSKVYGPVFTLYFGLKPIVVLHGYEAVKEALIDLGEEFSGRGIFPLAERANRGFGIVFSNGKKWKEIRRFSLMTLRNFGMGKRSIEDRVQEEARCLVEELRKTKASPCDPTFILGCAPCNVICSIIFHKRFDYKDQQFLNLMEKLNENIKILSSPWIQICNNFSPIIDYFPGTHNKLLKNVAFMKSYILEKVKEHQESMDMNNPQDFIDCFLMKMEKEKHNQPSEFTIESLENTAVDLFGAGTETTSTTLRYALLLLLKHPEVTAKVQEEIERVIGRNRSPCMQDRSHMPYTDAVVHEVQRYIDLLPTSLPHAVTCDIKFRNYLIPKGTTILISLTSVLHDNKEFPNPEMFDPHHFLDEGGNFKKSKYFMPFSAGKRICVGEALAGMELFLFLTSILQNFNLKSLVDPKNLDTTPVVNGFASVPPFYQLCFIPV
Protocol: Inhibition of human liver microsome CYP450 enzyme 2C9
Type: in vitro ADME
Condition Info: human, microsomes, pH 7.4
pIC50: −log10 of the molar value.

{"Query Smiles": "Cn1ncc2c(N)nc3cc(F)c(C(=O)N4CCOC[C@@H]4c4ccc5c(c4)OC(F)(F)O5)cc3c21", "pIC50": "< 5.00"}

---

Protocol: Pharmacokinetic assay in rats
Assay type: in vivo, SD rats
Condition Info: SD, plasma, 2 mg/kg; rat, IV 2mpk
Measured C0, listed per entry for reference.
Measurement Kind: C0 (nM)

{"Compound": "Cn1ncc2c(N)nc3cc(F)c(C(=O)N(Cc4ccc5c(c4)OC(F)(F)O5)C4CC4)cc3c21 [Example I-16]", "Readout Number": 1140}
{"Compound": "CN(Cc1ccc2c(c1)OC(F)(F)O2)C(=O)c1ccc2nc(N)c3cnn(C)c3c2c1 [Example I-2]", "Readout Number": 2340}

---

Protocol: Pharmacokinetic assay in rats
Format: in vivo, SD rats
Condition Info: SD, plasma, 2 mg/kg; rat, IV 2mpk
Here, each record is paired with measured AUC(0-t) data.

{"Compound": "Cn1ncc2c(N)nc3cnc(C(=O)N4CCOC[C@@H]4c4ccc(C(F)(F)F)cc4)cc3c21 [Control compound A, reference compound]", "AUC(0-t) (µM·h)": 4.75}
{"Compound": "Cn1ncc2c(N)nc3cc(F)c(C(=O)N(Cc4ccc5c(c4)OC(F)(F)O5)C4CC4)cc3c21 [Example I-16]", "AUC(0-t) (µM·h)": 2.15}
{"Compound": "CN(Cc1ccc2c(c1)OC(F)(F)O2)C(=O)c1ccc2nc(N)c3cnn(C)c3c2c1 [Example I-2]", "AUC(0-t) (µM·h)": 6.42}

---

Protocol: Pharmacokinetic assay in mice
Assay type: in vivo, Balb/c mice
Condition Info: male, Balb/c, plasma, 10 mg/kg; mouse, PO 10mpk; read-out: MRT(0-∞)

{"Molecule": "CCN(Cc1ccc2c(c1)OC(F)(F)O2)C(=O)c1ccc2nc(N)c3cnn(C)c3c2c1 [Example I-5]", "MRT inf": "4.8 h"}
{"Molecule": "CN(Cc1ccc2c(c1)OC(F)(F)O2)C(=O)c1ccc2nc(N)c3cnn(C)c3c2c1 [Example I-2]", "MRT inf": "7.1 h"}
{"Molecule": "Cn1ncc2c(N)nc3cc(F)c(C(=O)N(Cc4ccc5c(c4)OC(F)(F)O5)C4CC4)cc3c21 [Example I-16]", "MRT inf": "5.2 h"}
{"Molecule": "CN(Cc1ccc2c(c1)OC(F)(F)O2)C(=O)c1cc2c(cc1F)nc(N)c1cnn(C)c12 [Example I-1]", "MRT inf": "5.5 h"}
